// values below are reported growth
# Test system: NCI-H322M lung
# TEST SUMMARY: NCI-60 one-dose screen, 48 h (100 = growth as untreated, 0 = no growth, -100 = all killed)
# RUN CONDITIONS: 10 µM unless noted
# Protocol: Growth inhibition of the NCI-H322M human Non-Small Cell Lung tumor cell line is measured as a screen for anti-cancer activity. Cells are grown in 96 well plates and exposed to the test compound for 48 hours. Compounds are tested at a single concentration, which is 10^-5 M for most compounds. The reported endpoint is percent growth (GI% or GIPRCNT), where numbers from 0 - 100% represent growth inhibition, and numbers from -100% - 0 represent cell death. […]
About 83,000 compounds went through this panel and 20% of them were active in at least one assay; those are over-represented in the sample as a whole.
RECORDED ENDPOINT: growth (%)

1) CCCCSc1nc(NCCc2c[nH]c3ccccc23)c(C#N)c(-c2ccc(F)cc2)n1; 86.3
2) Cc1ccc(C(=O)CSc2nc3ccc(C)cc3c(=O)n2-c2ccc(F)cc2)cc1; 60
3) N#Cc1c(-c2cccc(Cl)c2Cl)cc(-c2ccc3ccccc3c2)[nH]c1=O; 53.2
4) CNC(=O)c1cccc(NC(=O)c2ccc3c(c2)nnn3/C(C#N)=C/c2ccccn2)c1; 91.8
5) COc1cc2c(c(OC)c1OC)C(=O)CC(c1cccc(NC(=O)c3cc([N+](=O)[O-])ccc3Cl)c1)O2 (centres undefined); 55.7
6) COC(=O)/C=C/c1cccc2c1C(=O)NC(C)(c1cc3cc4ccccc4cc3oc1=O)N2 (centres undefined); 68
7) CCCSc1nc(Nc2ccc(S(N)(=O)=O)cc2)c(C#N)c(-c2ccc(Cl)cc2)n1; 21.9
8) O=c1oc2ccc(Br)cc2cc1C1=CSc2nc3sc4c(c3c(=O)n2N=C1)CCCC4; 96.6
9) COc1cccc(COc2ccc(NC(=O)Nc3ccc(Cl)c(C(F)(F)F)c3)cc2)c1; 16.3

====

# Test system: RXF 393 renal
# TEST SUMMARY: NCI-60 one-dose screen, 48 h
# RUN CONDITIONS: 10 µM unless noted
The panel holds about 83,000 compounds, 20% with a hit somewhere; the sample as a whole holds those more often. Calls of active or inactive are those of the source. The calls were made as follows: active = growth percent below 10; inactive = the rest.
Outcomes: Y for active, N for inactive

1) COc1cc(/C=C/C(=O)c2nnn(-c3ccc(Cl)cc3)c2C)cc(OC)c1OC; N
2) COc1ccc(C(=O)/C=C/c2c(F)cccc2Cl)cc1S(N)(=O)=O; Y
3) N/C(=N\c1nc2ccccc2s1)NC(=O)Nc1ccc(Cl)cc1Cl; Y
4) COc1c(F)ccc(C(=O)Nc2ccc3nc(NC(=O)C4CCCN(S(=O)(=O)c5ccc(Br)s5)C4)sc3c2)c1F (configuration not stated); N
5) CC1CN(c2oc(-c3ccc([N+](=O)[O-])cc3)nc2C#N)CC(C)O1 (configuration not stated); N
6) Cc1cc2nc3c4ccccc4n(CCCN(C)C)c3nc2cc1C; Y
7) N/C(=N\c1nc2ccccc2s1)NC(=O)Nc1c(Cl)cccc1Cl; N
8) C[C@H]1CN(C(=O)c2ccc3c(NNC(=O)c4ccncn4)nc4cc(F)c(F)cc4n23)CCN1; N
9) CCCCSc1nc(NCCc2c[nH]c3ccccc23)c(C#N)c(-c2ccc(OC)cc2)n1; Y
10) CN(C)CCn1c2ccccc2c2nc3cc(C(F)(F)F)ccc3nc21; N
11) Nc1nc(-c2ccccc2)c(N=Nc2ccc([N+](=O)[O-])cc2Cl)s1; N
12) CC(=O)Nc1ccc(C(=O)NC(=S)Nc2ccc(S(N)(=O)=O)cc2)cc1; N
13) COc1ccccc1C(=O)NN1C(=O)/C(=C/C2=Cc3ccccc3OC2)SC1=S; N
14) CN1CCN(c2ccc(C(=O)/C=C/c3ccc(Br)cc3)cc2)CC1; N
15) COc1ccc2[nH]cc(-c3cc(N)n4nc(-c5cn(C)c6ccccc56)cc4n3)c2c1; Y
16) CC1(c2cc3cc(Cl)ccc3oc2=O)NC(=O)c2c(/C=C/C(=O)OC3CC4CCC3(C)C4(C)C)cccc2N1 (configuration not stated); N
17) Cc1cc(C)cc(NC(=O)Cn2cc(COn3nnc4ccccc43)nn2)c1; N
18) Nc1cccc(SCc2cc3ccccc3[nH]c2=O)c1; N
19) COc1ccc(C(=O)/C=C/c2ccccc2Br)cc1S(N)(=O)=O; Y
20) COc1ccc(NC(=O)Nc2ccc(OCc3ccc(F)cc3)cc2)cc1; N
21) O=C(/C=C/c1cccc(OCc2ccc(F)cc2)c1)c1nc2ccccc2[nH]1; N
22) O=C(/C=C/c1ccc(O)c(O)c1)NC1CCOC1O (configuration not stated); N
23) CCCCNC(=S)Nc1ccc(OCc2nc3ccccc3[nH]2)cc1; N
24) COc1ccc2[nH]c(=O)c(CSc3nccc(-c4ccc(OC)c(OC)c4)n3)cc2c1; Y
25) O=C(NN1C(=O)/C(=C/C=C/c2ccc([N+](=O)[O-])o2)SC1=S)c1cccc(O)c1; Y
26) COc1ccc(NC(=O)Cn2c3c(sc2=O)[C@H]2[C@@H](O)[C@@H](O)[C@H](O)[C@@H]2CS3)cc1; N
27) COC(=O)C[C@](O)(CCCC(C)(C)O)C(=O)O[C@H]1C(OC)=C[C@@]23CCCN2CCc2cc4c(cc2[C@@H]13)OCO4; Y
28) C#CCOc1ccc(/C=N/Nc2nc(-c3cc4cc(OC)ccc4oc3=O)cs2)cc1OC; Y
29) O=C(O)c1ccc(-c2ccc(/C=N/NC(=O)c3[nH]c4ccc(Br)cc4c3-c3ccccc3)o2)cc1; Y
30) CN(C)c1nc(NCCNS(=O)(=O)c2ccc(C3=Nc4c(N)nc(N)nc4NC(c4ccc(C(F)(F)F)cc4)C3)cc2)nc(Nc2ccc(F)cc2)n1 (configuration not stated); Y
31) COc1ccc(C2CC(c3ccc(S(=O)(=O)NCCNc4nc(Nc5ccc(F)cc5)nc(N(C)C)n4)cc3)=Nc3c(N)nc(N)nc3N2)cc1 (configuration not stated); N
32) COc1ccc(-c2nc3cc(C)ccc3n2CC(=O)N=Nc2c(O)[nH]c3ccc(OC)cc23)cc1; Y
33) C=C1CC[C@@H]2[C@]3(C)COC(c4cn(-c5ccccc5)nc4-c4cccc([N+](=O)[O-])c4)O[C@@H]3CC[C@@]2(C)[C@@H]1C/C=C1/C(=O)OC[C@H]1O (some centres not stated); Y
34) COc1ccc(/C=C/c2nc3ccccc3c(=O)n2CC(=O)Nc2ccc(Cl)cc2)cc1; N
35) N#Cc1cnn(C(=O)c2ccccc2Br)c1NC(=O)c1ccc(Br)cc1Cl; N
36) CC(=O)OC[C@@]1(C)C2CC[C@]3(C)C(CC=C4C5CC(C)(C)CC[C@]5(C(=O)Nc5ccc(Br)cc5)CC[C@]43C)[C@@]2(C)C[C@@H](OC(C)=O)[C@@H]1OC(C)=O (some centres not stated); N
37) C=C1CCC2C3(C)COC(c4ccc(F)cc4)OC3CCC2(C)C1CC(O)C1=CCOC1=O (configuration not stated); N

====

# System: HCC-2998 colon
# TEST SUMMARY: NCI-60 one-dose screen, 48 h
# RUN CONDITIONS: 10 µM unless noted
This is part of a sample that, as a whole, favours compounds with a hit. Of some 83,000 tested, about 20% had one in any assay. Activity calls are given as the source filed them. Rule for the calls: active = growth percent below 10; inactive = the rest.
Outcomes: active, inactive

1) CC1(C)CC[C@]2(C(=O)O)CC[C@]3(C)C(=CCC4[C@@]5(C)C[C@@H](O)[C@@H]6OC(c7ccc(F)cc7)OC[C@@]6(C)C5CC[C@]43C)C2C1 (stereo partly drawn); inactive
2) C#CCOc1cc(N(CC)CC)ccc1C(C(=O)NC(C)(C)C)N(C(=O)C1CCc2cc(F)ccc2O1)c1ccc(F)c(Cl)c1 (stereo not drawn); inactive
3) Cn1cc(NC(=O)c2cc(NC(=O)c3ccc(C#Cc4ccccc4)cc3)cn2C)cc1C(=O)NCCCN1CCOCC1; active
4) CCCCSc1nc(NCCc2c[nH]c3ccccc23)c(C#N)c(-c2ccc(OC)cc2)n1; inactive
5) CC(=O)Nc1ccc(-c2cn(-c3cccc(C(=O)Nc4ccc(N5CCN(C)CC5)cc4)c3)nn2)cn1; inactive
6) COCOc1ccc2c(=O)c(C)c(C(=O)N[C@@H](Cc3ccccc3)C(O)C(=O)NCCc3ccc(OC)cc3)oc2c1 (stereo partly drawn); inactive
7) O=C(Cn1c(/C=C/c2ccccc2)nc2ccccc2c1=O)Nc1ccc(Cl)cc1; inactive
8) O=C(c1ccccc1)c1ccc2nc(-c3ccc(F)cc3)[nH]c2c1; inactive

====

# System: HCC-2998 colon
# TEST SUMMARY: NCI-60 one-dose screen, 48 h (100 = growth as untreated, 0 = no growth, -100 = all killed)
# RUN CONDITIONS: 10 µM unless noted
# Protocol: Growth inhibition of the HCC-2998 human tumor cell line is measured as a screen for anti-cancer activity. Cells are grown in 96 well plates and exposed to the test compound for 48 hours. Compounds are tested at a single concentration, which is 10^-5 M for most compounds. The reported endpoint is percent growth (GI% or GIPRCNT), where numbers from 0 - 100% represent growth inhibition, and numbers from -100% - 0 represent cell death. For example, a value of 40 represents 60% growth inhibition. […]
The panel holds about 83,000 compounds, 20% with a hit somewhere; the sample as a whole holds those more often. Activity calls are given as the source filed them. The calls were made as follows: active = growth percent below 10; inactive = the rest.
// values below are reported growth
RECORDED ENDPOINT: growth

1. Cc1cc(C)n(-c2ccc3nnc(-c4ccccc4)n3n2)n1; 103% (inactive)
2. CC(=O)c1c(N)c(C#N)cn1-c1ccc(Cl)cc1Cl; 114% (inactive)
3. CSc1ccc(NC(=O)c2ccc3nnn(/C(C#N)=C/c4ccccn4)c3c2)cc1; -70.6% (active)
4. C=C1CCC2C3(C)COC(c4cc(F)cc(F)c4)OC3CCC2(C)C1CC(O)C1=CCOC1=O (centres undefined); 45.8% (inactive)
5. Cc1ccccc1[C@H]1C(C(=O)c2ccc(Cl)cc2)C2(N[C@@H]1c1ccccc1)C(=O)Nc1ccc(Cl)cc12 (some centres undefined); -54.2% (active)
6. CCCCSc1nc(Nc2ccc(C(C)=O)cc2)c(C#N)c(-c2ccc(OC)cc2)n1; 98.4% (inactive)
7. CC(C)CSc1nc(NCCc2c[nH]c3ccccc23)c(C#N)c(-c2ccccc2)n1; 43.5% (inactive)
8. COc1cc2oc(-c3cccc(C(=O)Nc4ccc(Cl)cc4)c3)cc(=O)c2c(OCCNC(=O)[C@@H](N)CCC(=O)O)c1OC; 115% (inactive)
9. CN1CCN(c2ccc3c(c2)nc(NNC(=O)c2cnccn2)c2cccn23)CC1; -44.5% (active)
